- assayed.target: HK2 (Homo sapiens)
- Construct: made in house; host or cells: E. coli BL21 (DE3)
- Sequence (P52789 whole entry): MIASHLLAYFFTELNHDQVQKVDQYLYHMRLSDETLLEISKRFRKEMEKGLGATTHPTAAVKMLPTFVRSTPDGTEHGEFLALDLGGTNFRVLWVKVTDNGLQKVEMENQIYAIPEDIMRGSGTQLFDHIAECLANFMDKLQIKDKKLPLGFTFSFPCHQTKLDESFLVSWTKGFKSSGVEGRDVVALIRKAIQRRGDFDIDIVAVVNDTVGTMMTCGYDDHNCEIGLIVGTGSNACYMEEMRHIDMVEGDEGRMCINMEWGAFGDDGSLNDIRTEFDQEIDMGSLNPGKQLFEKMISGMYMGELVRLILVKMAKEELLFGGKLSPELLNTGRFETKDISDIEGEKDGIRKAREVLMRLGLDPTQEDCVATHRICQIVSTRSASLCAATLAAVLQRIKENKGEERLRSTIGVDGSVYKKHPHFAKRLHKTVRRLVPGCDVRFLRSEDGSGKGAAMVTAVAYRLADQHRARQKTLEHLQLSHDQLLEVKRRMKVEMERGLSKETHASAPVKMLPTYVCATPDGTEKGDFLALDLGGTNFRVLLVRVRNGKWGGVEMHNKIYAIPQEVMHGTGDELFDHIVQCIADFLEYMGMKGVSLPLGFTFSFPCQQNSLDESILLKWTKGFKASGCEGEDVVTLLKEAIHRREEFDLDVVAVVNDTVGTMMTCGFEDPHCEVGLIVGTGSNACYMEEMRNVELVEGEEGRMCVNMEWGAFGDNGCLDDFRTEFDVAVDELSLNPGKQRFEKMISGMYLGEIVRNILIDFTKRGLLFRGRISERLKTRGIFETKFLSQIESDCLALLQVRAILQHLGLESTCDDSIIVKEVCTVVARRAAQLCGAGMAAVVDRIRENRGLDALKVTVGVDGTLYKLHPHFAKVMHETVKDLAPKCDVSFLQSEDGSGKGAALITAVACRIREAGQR
- protocol: In vitro enzyme inhibition assay (G6P-DH coupled, NADH 340 nm)
- Type: biochemical
reported.endpoint: IC50

IN: Entry `CNC[C@H](O)[C@@H](O)[C@H](O)[C@H](O)CO` : reported IC50 = ?
OUT: > 1000 µM
